system: Plasmodium berghei; experiment: Luciferase/luciferin-expressing antifolate-resistant parasites were used to infect a culture of HepG2 cells that were pre-incubated with compounds. Infected hepatocytes emit light due to the luciferase reaction. Assay results are presented as the percent inhibition of light emission compared to control. […]; format: functional; conditions: sporozoite, PBLUC_HILL_SLOPE 20, PBLUC_R_SQUARED 0.321, read-out: LUCIFERASE INFECTION ASSAY - IC50
Observed property: IC50
Returns: string containing the numeric result and its unit.

The reported IC50 of the molecule `Nc1nc(Sc2ncnc3sccc23)nc2sccc12` was 7.96 µM

* * *

system: Plasmodium berghei; test: Luciferase/luciferin-expressing antifolate-resistant parasites were used to infect a culture of HepG2 cells that were pre-incubated with compounds. Infected hepatocytes emit light due to the luciferase reaction. Assay results are presented as the percent inhibition of light emission compared to control. […]; type: functional; conditions: sporozoite, FFLUC_HILL_SLOPE 26.5, FFLUC_R_SQUARED 0.0302, HEPG2TOX_HILL_SLOPE 1.05, HEPG2TOX_R_SQUARED 0.954, PBLUC_HILL_SLOPE 2.57, PBLUC_R_SQUARED 0.624, read-out: LUCIFERASE INFECTION ASSAY - IC50
Observed property: IC50 (nM)
Output spec: scalar in nM, unitless text.

The recorded IC50 with Plasmodium berghei for `O=C(Nc1nc2ccccn2c1C(=O)NC1CCCC1)c1ccc(F)c(F)c1` was 1350
